Below is a list of entries, each paired with its recorded IC50 value.
# TARGET ENTITY: Mammalian Na^+,K^+-ATPase (Sus scrofa, UniProt P05024)
# Construct: prepared per Klodos et al., 2002)
# ASSAY: Colorimetric ATPase assay, pig kidney membranes
# RUN CONDITIONS: pH 7, n = 3; read-out: ATP hydrolysis IC50 Mammalian Na^+,K^+-ATPase
# Protocol: To investigate the H^+-ATPase inhibitory effect of the compounds we isolated plasma membranes containing H^+-ATPase from S. cerevisiae and C. albicans cells.[15] […] ATPase activity was determined by a colorimetric assay that measures the amount of inorganic phosphate liberated over time, as described in Kjellerup et al., 2017.[15] […] The compound libraries were purchased from Enamine Ltd, Ukraine and Chembridge Corp, USA. […] Absorption was measured at 860 nm after an additional 30 minutes incubation at RT.
READOUT: IC50 (µM)

>>> measured_result("CCC(C)NCC(O)Cn1c2ccc(Cl)cc2c2cc(Cl)ccc21 (stereo not drawn) [Compound 10]")
1
>>> measured_result("CN1CCN(CCCn2c3ccc(Cl)cc3c3cc(Cl)ccc32)CC1 [Compound 16]")
2.5
>>> measured_result("CN(C)CCCn1c2ccc(Cl)cc2c2cc(Cl)ccc21 [Compound 14]")
2.1
>>> measured_result("CN1CCN(CC(O)Cn2c3ccc(C#N)cc3c3cc(C#N)ccc32)CC1 (stereo not drawn) [Compound 12]")
10.5
>>> measured_result("CN(C)CCCCn1c2ccc(Cl)cc2c2cc(Cl)ccc21 [Compound 15]")
5.1
>>> measured_result("OC(CN1CCOCC1)Cn1c2ccc(Cl)cc2c2cc(Cl)ccc21 (stereo not drawn) [Compound 7]")
6
>>> measured_result("CN1CCN(CC(O)Cn2c3ccc(Cl)cc3c3cc(Cl)ccc32)CC1 (stereo not drawn) [Compound 8]")
9.7
>>> measured_result("OC(Cn1cncn1)Cn1c2ccc(Cl)cc2c2cc(Cl)ccc21 (stereo not drawn) [Compound 6]")
5.2

###

# TARGET ENTITY: S. cerevisiae H^+-ATPase (Saccharomyces cerevisiae, UniProt P05030)
# Construct: transformed with the full-length cDNA of the S. cerevisiae plasma membrane H^+-ATPase isoform PMA1; made in house; host or cells: S. cerevisiae RS72
# Sequence (P05030 whole entry, canonical isoform): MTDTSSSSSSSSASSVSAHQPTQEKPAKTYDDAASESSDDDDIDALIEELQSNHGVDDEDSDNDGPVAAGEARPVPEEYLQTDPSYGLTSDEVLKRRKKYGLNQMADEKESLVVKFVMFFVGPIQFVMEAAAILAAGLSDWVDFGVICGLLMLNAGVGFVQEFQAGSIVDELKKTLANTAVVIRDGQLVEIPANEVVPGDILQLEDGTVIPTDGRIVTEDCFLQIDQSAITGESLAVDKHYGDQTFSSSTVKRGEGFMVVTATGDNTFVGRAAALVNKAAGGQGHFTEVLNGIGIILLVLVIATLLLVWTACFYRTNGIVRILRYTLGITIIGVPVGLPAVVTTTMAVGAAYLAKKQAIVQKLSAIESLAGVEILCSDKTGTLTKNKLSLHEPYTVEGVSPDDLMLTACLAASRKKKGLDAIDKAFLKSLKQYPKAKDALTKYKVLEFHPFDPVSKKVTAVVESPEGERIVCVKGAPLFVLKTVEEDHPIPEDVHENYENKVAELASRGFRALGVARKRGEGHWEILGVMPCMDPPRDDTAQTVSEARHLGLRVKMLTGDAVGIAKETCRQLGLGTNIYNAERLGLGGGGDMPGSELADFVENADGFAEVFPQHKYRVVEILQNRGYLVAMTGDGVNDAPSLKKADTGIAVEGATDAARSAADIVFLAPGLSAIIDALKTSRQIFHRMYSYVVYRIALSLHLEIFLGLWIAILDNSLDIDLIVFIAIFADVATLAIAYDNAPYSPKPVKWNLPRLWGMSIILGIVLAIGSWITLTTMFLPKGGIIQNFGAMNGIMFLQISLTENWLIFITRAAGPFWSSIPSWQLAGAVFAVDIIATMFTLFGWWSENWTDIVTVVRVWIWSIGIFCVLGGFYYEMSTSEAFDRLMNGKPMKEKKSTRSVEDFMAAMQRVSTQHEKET
# ASSAY: Colorimetric ATPase assay (ATP hydrolysis), S. cerevisiae plasma membranes
# Type: biochemical
# RUN CONDITIONS: pH 7, n = 3
pIC50: −log10 of the molar value.
Below is a list of entries, each paired with its recorded pIC50 value.
READOUT: pIC50

>>> measured_result("O=C(O)C1CCN(CC(O)Cn2c3ccc(Cl)cc3c3cc(Cl)ccc32)CC1 (stereo not shown)")
3.97
>>> measured_result("CN1CCN(CCCn2c3ccc(Cl)cc3c3cc(Cl)ccc32)CC1")
4.70
>>> measured_result("CN1CCN(CC(O)Cn2c3ccc(Cl)cc3c3cc(Cl)ccc32)CC1 (stereo not shown)")
4.28
>>> measured_result("CN(C)CCCn1c2ccc(Cl)cc2c2cc(Cl)ccc21")
4.44
>>> measured_result("OC(Cn1cncn1)Cn1c2ccc(Cl)cc2c2cc(Cl)ccc21 (stereo not shown)")
5.13
>>> measured_result("CCC(C)NCC(O)Cn1c2ccc(Cl)cc2c2cc(Cl)ccc21 (stereo not shown)")
5.70
>>> measured_result("CN(C)CCCCn1c2ccc(Cl)cc2c2cc(Cl)ccc21")
4.29
>>> measured_result("Clc1ccc2c(c1)c1cc(Cl)ccc1n2CCCN1CCOCC1")
4.95
>>> measured_result("OC(CN1CCOCC1)Cn1c2ccc(Cl)cc2c2cc(Cl)ccc21 (stereo not shown)")
5.16
>>> measured_result("OC(Cn1ccnc1)Cn1c2ccc(Cl)cc2c2cc(Cl)ccc21 (stereo not shown)")
4.64

###

Below is a list of entries, each paired with its recorded IC50 value.
# TARGET ENTITY: C. albicans H^+-ATPase (Candida albicans, UniProt P28877)
# Construct: endogenous in cells; host or cells: C. albicans culture grown in YPD; microsomal membrane preparation
# Sequence (P28877 whole entry): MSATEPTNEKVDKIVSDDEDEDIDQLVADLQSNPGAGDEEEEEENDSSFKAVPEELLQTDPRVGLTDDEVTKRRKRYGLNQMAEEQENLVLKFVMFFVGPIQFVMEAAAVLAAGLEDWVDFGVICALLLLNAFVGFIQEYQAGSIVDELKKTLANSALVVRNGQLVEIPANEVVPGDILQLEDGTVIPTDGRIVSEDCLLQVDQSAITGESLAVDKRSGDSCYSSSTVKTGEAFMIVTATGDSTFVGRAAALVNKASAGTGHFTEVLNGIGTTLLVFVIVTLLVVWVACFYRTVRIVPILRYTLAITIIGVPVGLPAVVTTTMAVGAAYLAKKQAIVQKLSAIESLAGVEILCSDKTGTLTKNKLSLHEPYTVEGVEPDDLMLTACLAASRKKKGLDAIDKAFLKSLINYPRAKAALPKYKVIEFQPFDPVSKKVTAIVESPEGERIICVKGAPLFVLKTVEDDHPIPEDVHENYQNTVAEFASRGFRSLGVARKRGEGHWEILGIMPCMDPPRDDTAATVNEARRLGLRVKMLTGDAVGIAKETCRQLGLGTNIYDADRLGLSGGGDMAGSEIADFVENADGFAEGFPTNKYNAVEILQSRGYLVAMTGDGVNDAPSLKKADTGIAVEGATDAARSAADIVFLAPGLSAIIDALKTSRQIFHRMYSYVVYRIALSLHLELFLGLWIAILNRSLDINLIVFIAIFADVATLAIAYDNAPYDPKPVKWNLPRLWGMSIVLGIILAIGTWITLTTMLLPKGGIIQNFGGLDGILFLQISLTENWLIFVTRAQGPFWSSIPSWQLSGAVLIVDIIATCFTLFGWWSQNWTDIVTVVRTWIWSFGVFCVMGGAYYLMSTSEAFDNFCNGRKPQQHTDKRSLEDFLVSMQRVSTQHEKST
# ASSAY: Colorimetric ATPase assay (ATP hydrolysis), C. albicans membranes
# Assay type: biochemical
# RUN CONDITIONS: pH 7, n = 3
READOUT: IC50 (µM)

>>> measured_result("OC(Cn1ccnc1)Cn1c2ccc(Cl)cc2c2cc(Cl)ccc21 (stereo not shown) [Compound 5]")
19.3
>>> measured_result("CN1CCN(CCCn2c3ccc(Cl)cc3c3cc(Cl)ccc32)CC1 [Compound 16]")
7.1
>>> measured_result("CN1CCN(CC(O)Cn2c3ccc(C#N)cc3c3cc(C#N)ccc32)CC1 (stereo not shown) [Compound 12]")
144
>>> measured_result("CN(C)CCCCn1c2ccc(Cl)cc2c2cc(Cl)ccc21 [Compound 15]")
31.1
>>> measured_result("Clc1ccc2c(c1)c1cc(Cl)ccc1n2CCCN1CCOCC1 [Compound 18]")
5.9
>>> measured_result("CCC(C)NCC(O)Cn1c2ccc(Cl)cc2c2cc(Cl)ccc21 (stereo not shown) [Compound 10]")
1.1
>>> measured_result("CN(C)CCCn1c2ccc(Cl)cc2c2cc(Cl)ccc21 [Compound 14]")
23.3
>>> measured_result("OC(CN1CCOCC1)Cn1c2ccc(Cl)cc2c2cc(Cl)ccc21 (stereo not shown) [Compound 7]")
2.6
>>> measured_result("O=C(O)C1CCN(CC(O)Cn2c3ccc(Cl)cc3c3cc(Cl)ccc32)CC1 (stereo not shown) [Compound 9]")
105
>>> measured_result("OC(Cn1cncn1)Cn1c2ccc(Cl)cc2c2cc(Cl)ccc21 (stereo not shown) [Compound 6]")
4
>>> measured_result("CN1CCN(CC(O)Cn2c3ccc(Cl)cc3c3cc(Cl)ccc32)CC1 (stereo not shown) [Compound 8]")
26.4

###

Below is a list of entries, each paired with its recorded IC50 value.
# TARGET ENTITY: S. cerevisiae H^+-ATPase (Saccharomyces cerevisiae)
# Construct: transformed with the full-length cDNA of the S. cerevisiae plasma membrane H^+-ATPase isoform PMA1; made in house; host or cells: S. cerevisiae RS72
# ASSAY: Colorimetric ATPase assay (ATP hydrolysis), S. cerevisiae plasma membranes
# Assay type: biochemical
# RUN CONDITIONS: initial hit compounds, Table 1
READOUT: IC50 (µM)

>>> measured_result("OC(CN1CCCC1)Cn1c2ccc(Cl)cc2c2cc(Cl)ccc21 (stereo not shown) [Compound 4]")
17.3
>>> measured_result("CC(C)CCOCC(O)Cn1c2ccccc2c2ccccc21 (stereo not shown) [Compound 2]")
5.5
>>> measured_result("Oc1ccccc1Cn1c2ccccc2c2ccccc21 [Compound 3]")
9.7
>>> measured_result("OC(CN1CCCCCC1)Cn1c2ccccc2c2ccccc21 (stereo not shown) [Compound 1]")
18.8

###

# System: Candida albicans SC5314
# ASSAY: Fungal growth inhibition MIC (MFC)
# Assay type: cell-based
# RUN CONDITIONS: Candida albicans SC5314, value in brackets
READOUT: MFC

>>> measured_result("CN(C)CCCCn1c2ccc(Cl)cc2c2cc(Cl)ccc21 [Compound 15]")
"24 µM"
>>> measured_result("OC(Cn1cncn1)Cn1c2ccc(Cl)cc2c2cc(Cl)ccc21 (stereo not shown) [Compound 6]")
"> 75 µM"
>>> measured_result("OC(Cn1ccnc1)Cn1c2ccc(Cl)cc2c2cc(Cl)ccc21 (stereo not shown) [Compound 5]")
"> 75 µM"
>>> measured_result("CN1CCN(CC(O)Cn2c3ccc(O)cc3c3cc(O)ccc32)CC1 (stereo not shown) [Compound 13]")
"> 75 µM"

###

# Tested on: Saccharomyces cerevisiae ATCC 9763
# ASSAY: Fungal growth inhibition MIC (MFC)
# Format: cell-based
# RUN CONDITIONS: ATCC9763; Saccharomyces cerevisiae ATCC 9763, value in brackets
READOUT: MFC

>>> measured_result("CN1CCN(CC(O)Cn2c3ccc(O)cc3c3cc(O)ccc32)CC1 (stereo not drawn)")
"> 75 µM"
>>> measured_result("CCC(C)NCC(O)Cn1c2ccc(Cl)cc2c2cc(Cl)ccc21 (stereo not drawn)")
"1.2 µM"
>>> measured_result("CN1CCN(CC(O)Cn2c3ccc(Cl)cc3c3cc(Cl)ccc32)CC1 (stereo not drawn)")
"7.5 µM"
>>> measured_result("Clc1ccc2c(c1)c1cc(Cl)ccc1n2CCCN1CCOCC1")
"> 75 µM"
>>> measured_result("OC(Cn1cncn1)Cn1c2ccc(Cl)cc2c2cc(Cl)ccc21 (stereo not drawn)")
"> 75 µM"
>>> measured_result("OC(CN1CCOCC1)Cn1c2ccc(Cl)cc2c2cc(Cl)ccc21 (stereo not drawn)")
"24 µM"
>>> measured_result("CN(C)CCCn1c2ccc(Cl)cc2c2cc(Cl)ccc21")
"16 µM"
>>> measured_result("CN(C)CCCCn1c2ccc(Cl)cc2c2cc(Cl)ccc21")
"5 µM"
>>> measured_result("CN1CCN(CC(O)Cn2c3ccc(C#N)cc3c3cc(C#N)ccc32)CC1 (stereo not drawn)")
"> 75 µM"

###

# MIC per entry for Aspergillus flavus ATCC MYA-1005
READOUT: MIC

>>> measured_result("O=C(O)C1CCN(CC(O)Cn2c3ccc(Cl)cc3c3cc(Cl)ccc32)CC1 (stereo not drawn)")
"> 75 µM"
>>> measured_result("CN1CCN(CC(O)Cn2c3ccc(O)cc3c3cc(O)ccc32)CC1 (stereo not drawn)")
"> 75 µM"
>>> measured_result("CN(C)CCCn1c2ccc(Cl)cc2c2cc(Cl)ccc21")
"> 75 µM"
>>> measured_result("OC(Cn1cncn1)Cn1c2ccc(Cl)cc2c2cc(Cl)ccc21 (stereo not drawn)")
"> 75 µM"
>>> measured_result("OC(Cn1ccnc1)Cn1c2ccc(Cl)cc2c2cc(Cl)ccc21 (stereo not drawn)")
"> 75 µM"
>>> measured_result("OC(CN1CCOCC1)Cn1c2ccc(Cl)cc2c2cc(Cl)ccc21 (stereo not drawn)")
"> 75 µM"
>>> measured_result("CCC(C)NCC(O)Cn1c2ccc(Cl)cc2c2cc(Cl)ccc21 (stereo not drawn)")
"12 µM"
>>> measured_result("CN1CCN(CCCn2c3ccc(Cl)cc3c3cc(Cl)ccc32)CC1")
"24 µM"
>>> measured_result("CN(C)CCCCn1c2ccc(Cl)cc2c2cc(Cl)ccc21")
"75 µM"
